Origin of the recorded values: paper PMC11249646

# Target Desc: CIB1 and αIIb interaction (CIB1-GST : F-αIIb peptide) (Homo sapiens, UniProt Q99828)
# Construct: made in house; host or cells: BL-21 plus RIL cells (E. coli)
# Assay Method Text: FP assay, 1536-well qHTS format (primary and confirmatory screen)
# Assay type: binding
# Condition Details: qHTS primary screen hits, Table S2; negative sign = inhibitory curve; several classes where COUNT > 1
Quantity Name: Curve Class
Reply with the value as a number alone.

// Curve Class lookup, key: O=C(O)C(F)(F)F.O=C(O)c1ccc(Cc2c(-c3cccc(-c4ccccc4)c3)nn(-c3nc(C(=O)O)cs3)c2O)cc1
-2.2

What do you get for COc1nn(CSP(=S)(OC)OC)c(=O)s1 ?
-1.2

----------
# Target Desc: GST-CIB1 : F-scrambled peptide (Homo sapiens, UniProt Q99828)
# Construct: made in house; host or cells: BL-21 plus RIL cells (E. coli)
# Sequence (Q99828 1-191): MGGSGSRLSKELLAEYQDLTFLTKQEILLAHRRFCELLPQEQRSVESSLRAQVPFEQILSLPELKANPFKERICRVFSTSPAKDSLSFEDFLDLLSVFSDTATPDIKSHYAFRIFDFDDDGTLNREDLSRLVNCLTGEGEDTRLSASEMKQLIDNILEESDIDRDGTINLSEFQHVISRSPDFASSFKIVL
# Assay Method Text: FP scrambled-peptide counter screen, 1536-well format
# Type: binding
# Condition Details: Table S3, counterscreen; negative = inhibition
Each entry below carries its recorded Efficacy (%) (counterscreen).
Value expressed in %; do not type the unit.

Worked examples follow.
CN(C)CCc1c[nH]c2cccc(O)c12 [NCGC00247728-01]
-126
CN1CCCN(C(=O)c2cccc(-c3ccc(/C=C4/C(=O)Nc5ccc(Cl)cc54)o3)c2)CC1 [NCGC00346935-01]
-108
OC[C@H]1O[C@@H](Oc2ccc(O)c3cccc(O)c23)[C@H](O)[C@@H](O)[C@@H]1O [NCGC00385147-01]
-86
COc1ccc2nc3[nH]nc(C)c3c(NCCOCCO)c2c1 [NCGC00384193-04]
-75
Cn1cc(-c2[nH]c3cc(NC(=O)[C@H](N)C4CCCCC4)cc4c3c2C=NNC4=O)cn1 [NCGC00263132-02]
-107
CO[C@@]12[C@H](COC(N)=O)C3=C(C(=O)C(C)=C(N)C3=O)N1C[C@@H]1N[C@@H]12 [NCGC00163468-05]
95
O=C(O)C(F)(F)F.O=C1CC(c2ccccc2Cl)c2sc(N3CCOCC3)nc2N1 (centres unmarked) [NCGC00488256-02]
-77
O=C1c2ccccc2C(=O)c2c1ccc(O)c2O [NCGC00095227-06]
-195

// next item, Efficacy (%) (counterscreen) requested
Would you kindly share the measured Efficacy (%) (counterscreen) for NC(=O)c1cccc(-c2cnc3c(O)ccc(C(=O)O)c3c2)c1.O=C(O)C(F)(F)F [NCGC00241055-01] ?
-42

----------
# Target Desc: GST-CIB1 : F-scrambled peptide (Homo sapiens, UniProt Q99828)
# Construct: made in house; host or cells: BL-21 plus RIL cells (E. coli)
# Assay Method Text: FP scrambled-peptide counter screen, 1536-well format
# Type: binding
# Condition Details: counterscreen
Criterion: Efficacy (%) (counterscreen) strictly under -40%. Met: Yes. Not met: No.

N#Cc1ccc(Nc2nc(-c3ccc(O)cc3O)cs2)cc1C(F)(F)F
Yes
CCOC(=O)c1nn(-c2ccc(OC)cc2)c(=O)c2c(N)scc12
Yes
Cc1cc(SCc2sc(-c3ccc(Cl)c(Cl)c3)nc2C)ccc1OCC(=O)O.O=C(O)C(F)(F)F
No

Answer whether the compound CC(C)C(=O)OCc1ccc(-c2nn(Cc3ccccc3)c3ccccc23)o1 has Efficacy (%) (counterscreen) strictly less than -40%
No

Also O=C(O)C(F)(F)F.O=C(O)c1ccc(O)c2ncc(-c3n[nH]nc3-c3ccccc3)cc12 , if possible.
No

# repeat for O=C(c1ccccc1)c1no[n+]([O-])c1C(=O)c1ccccc1
No

Please give the result for CCOC(=O)C1CCN(C(=O)C(C)(C)NC(=O)Nc2ccc(C#N)cc2)CC1.O=C(O)C(F)(F)F too.
No
